metric: IC50

UniProt:P08588 data for `CCCCCCC(C)(C)c1cc(O)c(C(=O)Nc2ccccc2)c(O)c1` ; its IC50: 640 to 750 nM

* * *

Biological target: DRD1 (Dopamine receptor D1) (Homo sapiens, UniProt P21728)
Sequence (P21728 whole entry): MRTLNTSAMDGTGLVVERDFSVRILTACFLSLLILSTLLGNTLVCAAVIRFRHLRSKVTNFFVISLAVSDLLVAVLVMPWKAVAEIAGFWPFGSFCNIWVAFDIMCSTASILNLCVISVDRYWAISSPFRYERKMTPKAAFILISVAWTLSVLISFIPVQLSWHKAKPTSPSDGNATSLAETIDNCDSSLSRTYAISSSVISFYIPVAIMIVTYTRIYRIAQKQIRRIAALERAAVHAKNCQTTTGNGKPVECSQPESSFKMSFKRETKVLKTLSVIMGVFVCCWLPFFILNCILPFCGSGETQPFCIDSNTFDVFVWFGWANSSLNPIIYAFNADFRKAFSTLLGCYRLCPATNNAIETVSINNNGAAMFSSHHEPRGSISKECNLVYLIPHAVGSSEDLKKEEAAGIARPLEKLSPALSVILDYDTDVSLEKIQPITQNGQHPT
Test: SAFETY scan E/IC50 ELECT, DRD1
Conditions: read-out: inhibition against DRD1 (mild)
pIC50: −log10 of the molar value.
metric: pIC50

Value of pIC50 reported for the molecule `CCCCCCC(C)(C)c1cc(O)c(C(=O)Nc2ccccc2)c(O)c1` is 6.12 to 6.19
